Tested on: SR leukemia
Assay: NCI tumour cell line growth inhibition, 48 h
readout: TGI

- O=c1oc2ccccc2cc1-c1cn2c(n1)sc1ccccc12: > 100 µM
- COc1ccc(C/C(=C(\C)c2ccc(OCCN3CCCC3)cc2)c2ccc(OCCN3CCCC3)cc2)cc1: 3.47 µM
- COC12C=C/C(=C(/C(=O)OCc3ccccn3)C(=O)CCCCCCCCC3(OC)C=C/C(=C(/C(=O)OCc4ccccn4)C(=O)CCCCCCCC1)O3)O2: > 100 µM
- CC1(C)CNc2cc(NC(=O)c3cccnc3NCc3ccncc3)ccc21: > 100 µM
- CC1=C(c2ccccc2)C(O)(c2ccccc2)C(C)C1=O (stereo not given): > 100 µM
